biological target: Cytochrome P450 2C9 (Homo sapiens); test: blockers of cytochrome P450 2C9 activity – biochemical, luminescence, ADME assay, primary screen (AID 777); conditions: CYP2C9 Supersomes, luciferin-H conversion, at 5 µM
In all, about 96,000 compounds went through this assay and about 19,000 (20%) were called active.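 How the source made its calls: active means blocking of liver enzyme CYP2C9 beyond about 50% at 5 µM (limit read from the data); inactive means the rest.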 These entries were drawn from the full list.
Form entry, call: pick from t (active), f (inactive)

Fill in: this test's call for CCOC(=O)CCC(=O)OCC(=O)NC(C)C1CC2CCC1C2 (centres undefined) is ___ f

***
// return assay outcome for `O=C(Nc1ccccc1)c1nnsc1S(=O)(=O)c1ccc(Cl)cc1` t

GET /call?item= `C[N+]1(CCNC(=O)/C=N/O)CCCCC1` returns the recorded outcome of this test. f

Please share the test call associated with CCCC(C(=O)n1nc(C)cc1C)C(NS(=O)(=O)c1ccc(C)cc1)c1ccccc1 (centres undefined) . f

Any idea what this test logged for `Cc1cnc(NC(=O)CSc2c(Cl)cccc2Cl)s1` ? f

Recorded call for `Cc1ccc(-c2csc(N(Cc3ccco3)C(=O)c3cccs3)n2)cc1` ? t

Each compound tested received a call. Report the one for CN1c2ccccc2-c2nc3ccccc3n2C1c1ccco1 (centres undefined) . f

Recorded test outcome, item `Cc1cccc(-n2nc3c(c2NC(=O)c2ccc(Br)o2)CSC3)c1C` t

State the result this test recorded for `COc1cccc(C(=O)Nc2c3c(nn2-c2cccc(C)c2C)CS(=O)(=O)C3)c1OC` . f

Query: recorded result category for `COc1ccc(Cl)cc1S(=O)(=O)Nc1cccc(C(=O)O)c1` in this test f

I would be grateful if you could indicate the recorded call for `Cc1ccccc1-n1nnc2c(=O)oc3ccccc3c21` . f

Record request — test call for `CC(=O)Nc1ccc(N2CCOCC2)c(C(=O)Nc2cccc(C)c2)c1` f

For `CCOc1cccc(NC(=O)CC#N)c1` , what call appears in the results of this test? f

Outcome? `Cc1cccc2nc(CNc3ccc(F)cc3)cn12` f
